- Assayed System: T1, Rat ASGR-1 (rat, UniProt P02706 1-284)
- T1 construct: Expressed on HEK 293 cells or as membrane prep on beads; cDNA GenBank NM_012503
- T1 sequence: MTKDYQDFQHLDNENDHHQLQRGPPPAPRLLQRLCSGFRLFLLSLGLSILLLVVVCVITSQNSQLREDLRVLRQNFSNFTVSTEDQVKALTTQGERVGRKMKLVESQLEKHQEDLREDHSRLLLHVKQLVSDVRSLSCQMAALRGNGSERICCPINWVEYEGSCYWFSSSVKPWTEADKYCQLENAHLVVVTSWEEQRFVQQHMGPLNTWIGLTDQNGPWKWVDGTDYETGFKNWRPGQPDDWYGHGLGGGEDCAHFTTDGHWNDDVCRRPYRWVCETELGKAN
- Assay Remarks: FACS on transfected HEK 293 cells or membrane preps on beads; binding = signal at least 2x irrelevant IgG

{"Binder": "202A3 (antibody, V domains shown, Tested as hybridoma supernatant at normalized concentration) VH: QVQLEQSGAEVKKPGASVKVSCKASGYTFTSYDINWVRQATGQGLEWLGWMNPKRGNTGYAQKFQGRVTMTRNTSISTAHMELSSLRSEDTAVYYCARGRYSREDYYYYYDMDVWGQGTTVTVSS VL: DIQMSQSPSSLSASVGDRVTITCRASQGIRNDLGWYQQKPGKAPKRLICAASRLQSGVPSRFSGSGSGTEFTLTISSLQPEDFAIYYCLQHHDYPFTFGPGTKVDIK", "binding result": "no binding"}
{"Binder": "191G1 (antibody, V domains shown, Tested as hybridoma supernatant at normalized concentration) VH: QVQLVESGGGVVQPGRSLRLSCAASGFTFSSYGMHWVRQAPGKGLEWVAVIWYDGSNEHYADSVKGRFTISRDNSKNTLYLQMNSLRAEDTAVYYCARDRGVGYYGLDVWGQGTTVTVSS VL: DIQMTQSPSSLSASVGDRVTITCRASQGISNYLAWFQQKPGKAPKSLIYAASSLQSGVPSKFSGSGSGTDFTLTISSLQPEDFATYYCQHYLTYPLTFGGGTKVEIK", "binding result": "no binding"}
{"Binder": "7G4 (antibody, V domains shown, Tested as hybridoma supernatant at normalized concentration) VH: QVQLVESGGGVVQPGRSLRLSCAASGFTFNNYVMHWVRQAPGKGLEWVAVIWYDGSNKYYADSVKGRFTISRDNSKNTLYLQMTSLRAEDTAVYYCAREKYSSNWYDYGMDVWGQGTTVTVSS VL: DIQMTQSPSSLSASVGDRVTITCRASQGIRNDLGWYQQRPGKAPKRLIYAASSLQSGVPSRFSGSGSGTEFTLTISSLQPEDSATYYCLHQYSYPRTFGQGTKVEIK", "binding result": "no binding"}
